Values were extracted from paper PMC9482650.

assay system: T1, MPDZ_5, O75970
T1 sequence (O75970 695-796, limits assumed, looked up): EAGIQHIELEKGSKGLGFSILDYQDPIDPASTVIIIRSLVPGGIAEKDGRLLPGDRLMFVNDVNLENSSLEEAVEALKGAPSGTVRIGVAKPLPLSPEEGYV
assay protocol: holdup assay
Set-up: key: below the threshold = too weak to quantify, mostly under pKd 3.1 to 4
condition details: plain residues with an end cap or a label only (N-terminal biotin on a linker: ahx)
observation type: pKd

{"binder": "PSASCAVTAA [PDLIM4, P50479;P50479-2]", "value reported": "below the threshold"}
{"binder": "TVICWPGSLV [LNX2, Q8N448]", "value reported": 4.03}
{"binder": "LSDPSVSTVV [GRIN1, Q05586;Q05586-2]", "value reported": "below the threshold"}
{"binder": "HNAFLSVTTV [PDZRN4, Q6ZMN7]", "value reported": 3.49}
{"binder": "ESLLLGPSNF [SHROOM4, Q9ULL8]", "value reported": "below the threshold"}
{"binder": "RRRKRKRTYL [HPV49-L2, P36762]", "value reported": "below the threshold"}
{"binder": "RAVEEEESRF [PSCDBP, O60759]", "value reported": "below the threshold"}
{"binder": "GYDWGPATDL [TJP3, O95049]", "value reported": "below the threshold"}
{"binder": "NRKREIFSNF [NHERF2, Q15599]", "value reported": "below the threshold"}

Ask | Look up pKd: SDSSGQEYSL [KCTD3, Q9Y597]
Reply | below the threshold
